# study.system: BACE1 (Homo sapiens)
# experiment.description: In Vitro BACE Cell-based Assay (HEK cell assay): Aβ40 in conditioned medium of cells stably expressing Amyloid Precursor Protein, sandwich ELISA
# setup.conditions: HEK cell-based assay, Aβ40 in conditioned medium, IC50 class symbols; read-out: HEK cell assay
pIC50: −log10 of the molar value.
measure.name: pIC50

| molecule | observed.value |
| --- | --- |
| COCC[C@H]1CN(c2ccc3c(c2)[C@]2(COC(N)=N2)c2cc(-c4cccnc4)ccc2O3)CCO1 [compound 361] | > 7.00 |
| NC1=N[C@@]2(CO1)c1cc(-c3cncc(F)c3)ccc1Oc1cnc(C3=CCOCC3)cc12 [compound 368] | > 7.00 |

Next molecule, please.
Exam item: Field: pIC50 (BACE1 (Homo sapiens)). Entry: NC1=N[C@@]2(CO1)c1cc(-c3cccnc3)ccc1Oc1c(F)cc(OCC(=O)C3CC3)cc12 [compound 387]
Marked response: > 7.00

---

# study.system: BACE1 (Homo sapiens, UniProt P56817)
# Sequence (P56817 46-501, species assumed): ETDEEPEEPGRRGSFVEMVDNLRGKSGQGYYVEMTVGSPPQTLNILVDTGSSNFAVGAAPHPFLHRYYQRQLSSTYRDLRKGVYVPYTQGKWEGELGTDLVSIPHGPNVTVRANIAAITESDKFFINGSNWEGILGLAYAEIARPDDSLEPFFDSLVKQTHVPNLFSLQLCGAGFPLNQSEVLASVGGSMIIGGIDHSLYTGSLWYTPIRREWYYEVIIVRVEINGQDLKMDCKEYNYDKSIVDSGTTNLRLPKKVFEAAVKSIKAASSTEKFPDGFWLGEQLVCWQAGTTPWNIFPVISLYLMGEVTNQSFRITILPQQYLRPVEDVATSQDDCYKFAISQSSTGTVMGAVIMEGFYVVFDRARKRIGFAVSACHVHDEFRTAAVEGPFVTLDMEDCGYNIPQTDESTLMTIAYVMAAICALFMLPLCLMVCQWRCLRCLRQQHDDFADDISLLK
# experiment.description: In Vitro Enzymatic BACE FRET (Fluorescence Resonance Energy Transfer) Assay
# Assay type: biochemical
# setup.conditions: Table IV, class symbols; read-out: BACE1 FRET assay
pIC50: −log10 of the molar value.
measure.name: pIC50

Worked cases, pIC50 given:
| compound | measure.name | observed.value |
| --- | --- | --- |
| NC1=N[C@@]2(CO1)c1cc(-c3cccnc3F)ccc1Oc1cnc(Cl)cc12 [compound 551] | pIC50 | 6.00 to 7.00 |
| COc1ccc2c(c1)[C@]1(COC(N)=N1)c1cc(NC(=O)[C@@H](C)OC)ccc1O2 [compound 536] | pIC50 | 6.00 to 7.00 |
| CC(C)(C)OC(=O)Cc1ccc2c(c1)[C@@]1(COC(N)=N1)c1cc(Br)ccc1O2 [compound 858] | pIC50 | < 5.30 |
| COc1cncc(-c2ccc3c(c2)[C@@]2(COC(N)=N2)c2cc(C#CC(C)(C)OC)cnc2O3)c1 [compound 602] | pIC50 | > 7.00 |
| CC(C)(O)C#Cc1cnc2c(c1)[C@]1(COC(N)=N1)c1cc(-c3cncnc3)ccc1O2 [compound 823] | pIC50 | > 7.00 |

Exam item: State the recorded pIC50 for this entry: NC1=N[C@@]2(CO1)c1cc(Br)ccc1Oc1cnc(Cl)cc12 [compound 548]
Marked response: < 5.30

Exam item: State the recorded pIC50 for this entry: COCC(=O)Nc1ccc2c(c1)[C@@]1(COC(N)=N1)c1cc(-c3ccccc3)ccc1O2 [compound 533]
Marked response: > 7.00

Exam item: State the recorded pIC50 for this entry: CC1(C)Cc2cc(-c3ccc4c(c3)[C@]3(COC(N)=N3)c3cc(-c5cncnc5)ccc3O4)ccc2O1 [compound 841]
Marked response: > 7.00

Exam item: State the recorded pIC50 for this entry: NC1=N[C@]2(CO1)c1cc(Br)ccc1Oc1cnc(Cl)cc12 [compound 549]
Marked response: < 5.30

Exam item: State the recorded pIC50 for this entry: CC(C)(C)c1nc(-c2ccc3c(c2)[C@]2(COC(N)=N2)c2cc(-c4cccnc4)ccc2O3)cs1 [compound 622]
Marked response: > 7.00

Exam item: State the recorded pIC50 for this entry: CC(C)(C)COc1ccc2c(c1)[C@]1(COC(N)=N1)c1cc(C3CCCCO3)ccc1O2 (some centres unmarked) [compound 656]
Marked response: > 7.00
